Molecular target: Dual specificity protein kinase CLK4 (Homo sapiens)
Assay: qHTS Assay for Inhibitors of CDC-like Kinase 4 (Kinase-Glo Assay) (AID 1770); further: nearly all actives have a fitted effect of over 65% in size; further: potency means the concentration at half of the fitted maximal effect
Conditions: recombinant Clk4, Kinase-Glo ATP depletion luminescence; series mostly up to 66.7 µM
Inconclusive results are not listed. Active and inactive are the calls of the source. The call rests on the fitted dose curve; in most records, active means well fitted inhibition curve with a large enough effect; inconclusive means small, poorly fitted or top-dose-only effect; inactive means flat fitted curve, though single readings scatter.
ENDPOINT: Potency

[
  {
    "SMILES NOTATION": "COc1ccc2[nH]cc(CCNc3cc(-c4ccc(C(=O)N(C)C)cc4)ncn3)c2c1",
    "TEST SYSTEM": "Dual specificity protein kinase CLK4 (Homo sapiens)",
    "OBSERVED MEASUREMENT": "10 µM (active)"
  },
  {
    "SMILES NOTATION": "Cc1cnc(CNc2nc(-c3cccc(NS(C)(=O)=O)c3)nc3ccccc23)cn1",
    "TEST SYSTEM": "Dual specificity protein kinase CLK4 (Homo sapiens)",
    "OBSERVED MEASUREMENT": "inactive"
  },
  {
    "SMILES NOTATION": "COc1ccc(CNc2ncncc2-c2cccc(C#N)c2)c(OC)c1",
    "TEST SYSTEM": "Dual specificity protein kinase CLK4 (Homo sapiens)",
    "OBSERVED MEASUREMENT": "28.2 µM (active)"
  },
  {
    "SMILES NOTATION": "COc1cccc(Cn2c(=O)c(-c3ccc(Cl)cc3)nc3cnc(N4CCN(C)CC4)nc32)c1",
    "TEST SYSTEM": "Dual specificity protein kinase CLK4 (Homo sapiens)",
    "OBSERVED MEASUREMENT": "inactive"
  },
  {
    "SMILES NOTATION": "Cc1nc2cnc(N3CCN(C)CC3)nc2n(C2CC2)c1=O",
    "TEST SYSTEM": "Dual specificity protein kinase CLK4 (Homo sapiens)",
    "OBSERVED MEASUREMENT": "inactive"
  },
  {
    "SMILES NOTATION": "COc1ccc(-c2nc3cnc(N(C)C)nc3n(Cc3ccc(F)cc3)c2=O)cc1",
    "TEST SYSTEM": "Dual specificity protein kinase CLK4 (Homo sapiens)",
    "OBSERVED MEASUREMENT": "inactive"
  },
  {
    "SMILES NOTATION": "CN(C)c1ncc2nc(-c3cccc(C#N)c3)c(=O)n(C[C@H]3CCCO3)c2n1",
    "TEST SYSTEM": "Dual specificity protein kinase CLK4 (Homo sapiens)",
    "OBSERVED MEASUREMENT": "inactive"
  },
  {
    "SMILES NOTATION": "COc1cccc(Nc2ncc3nc(C)c(=O)n(C[C@H]4CCCO4)c3n2)c1",
    "TEST SYSTEM": "Dual specificity protein kinase CLK4 (Homo sapiens)",
    "OBSERVED MEASUREMENT": "12.6 µM (active)"
  },
  {
    "SMILES NOTATION": "COCCn1c(=O)cnc2cnc(Oc3cccc(Cl)c3)nc21",
    "TEST SYSTEM": "Dual specificity protein kinase CLK4 (Homo sapiens)",
    "OBSERVED MEASUREMENT": "inactive"
  },
  {
    "SMILES NOTATION": "CN(C)C(=O)c1ccc(-c2cncnc2NCc2cccnc2)cc1",
    "TEST SYSTEM": "Dual specificity protein kinase CLK4 (Homo sapiens)",
    "OBSERVED MEASUREMENT": "inactive"
  }
]
